Test system: WPMY1-ACTB-RAB5A
Assay: phenotypically active (imaging signature differs from DMSO and reproducible) at any of 0.3-9 uM (binary (1 = active, 0 = inactive)); higher = active
Conditions: treatment time: 24 h
Parameter call: string, one of active, inactive

Some solved cases for reference:
compound=COc1cc2c(NC3CCN(C)CC3)nc(N3CCCN(C)CC3)nc2cc1OCCCN(C)C class_label=inactive
compound=CN(C)CC/C=C1\c2ccccc2COc2ccc(CC(=O)O)cc21 class_label=inactive
compound="C[C@@H]1O[C@@H](OC[C@H]2O[C@@H](Oc3c(-c4ccc(O)c(O)c4)oc4cc(O)cc(O)c4c3=O)[C@H](O)[C@@H](O)[C@@H]2O)[C@H](O)[C@H](O)[C@H]1O [Quercétine-3-rutinoside]" class_label=inactive

Please find the next compound below.
Ask | # fetch the recorded call for `Clc1ccc(N/N=C(\c2ccccc2)c2ccccn2)nc1` here
Reply | active
